Attribute: pIC50
target.under.test: BACE1 (Homo sapiens)
test.description: In Vitro Enzymatic BACE FRET (Fluorescence Resonance Energy Transfer) Assay
Format: biochemical
study.conditions: in vitro BACE FRET enzyme assay, IC50 class symbols; read-out: BACE1 FRET assay
pIC50: −log10 of the molar value.

// solved cases for pIC50 follow
> print(dat)
                                chem.smiles  endpoint.value
1  COc1ccc2c(c1)[C@@]1(COC(N)=N1)c1cc(N3CCOCC3)cc(F)c1O2    6.00 to 7.00
2  NC1=N[C@@]2(CO1)c1cc(-c3cccnc3)ccc1Oc1ccc(Cl)nc12    6.00 to 7.00
3  NC1=N[C@@]2(CO1)c1cc(-c3cccnc3)ccc1Oc1cnc(N3CCOCC3)cc12          > 7.00

In the following, a different molecule is considered.
Incoming: # return recorded pIC50 for input COc1ccc2c(c1)[C@]1(COC(N)=N1)c1cc(Br)cc(F)c1O2
Outgoing: < 5.30

---

target.under.test: BACE1 (Homo sapiens)
test.description: In Vitro BACE Cell-based Assay (HEK cell assay): Aβ40 in conditioned medium of cells stably expressing Amyloid Precursor Protein, sandwich ELISA
study.conditions: Table III; IC50's in uM ranges; read-out: HEK cell assay
measured.property: IC50

> print(dat)
                                   molecule     target.under.test  measured.property  endpoint.value
1  CC(C)(C)COc1ccc2c(c1)[C@@]1(COC(N)=N1)c1cc(C(=O)N3CCCC3)ccc1O2 [218a]  BACE1 (Homo sapiens)               IC50       1 to 5 µM
2  NC1=N[C@@]2(CO1)c1cc(-c3cccnc3)ccc1Oc1ncc(-c3cccnc3)cc12  BACE1 (Homo sapiens)               IC50       1 to 5 µM

Incoming: Let me know recorded IC50 for NC1=N[C@]2(CO1)c1cc(OCC3CCOC3)ccc1Oc1ccc(-c3cncnc3)cc12 (stereo partly shown) , thanks.
Outgoing: > 5 µM

Incoming: Fill in IC50 for record CC(C)(C)C#Cc1ccc2c(c1)[C@@]1(COC(N)=N1)c1cc(-c3ccc(F)nc3)ccc1O2 [147b]
Outgoing: 0.1 to 1 µM

Incoming: Report IC50 for CC(C)(C)COc1ccc2c(c1)[C@@]1(COC(N)=N1)c1cc(-c3ccc(C#N)cc3)ccc1O2
Outgoing: 0.1 to 1 µM

Incoming: Please report the measured IC50 for CC(C)(O)COc1ccc2c(c1)[C@]1(COC(N)=N1)c1cc(-c3cncc(F)c3)ccc1O2
Outgoing: < 0.1 µM

Incoming: Supply recorded IC50 for NC1=NC2(CO1)c1cc(-c3cccnc3)ccc1Oc1ccc(-c3cccnc3)cc12 here.
Outgoing: < 0.1 µM

Incoming: Fill in IC50 for record CC(C)(O)C#Cc1ccc2c(c1)[C@@]1(COC(N)=N1)c1cc(-c3cccnc3)ccc1O2 [151b]
Outgoing: < 0.1 µM

Incoming: Please report the measured IC50 for COC(C)(C)C#Cc1ccc2c(c1)C1(COC(N)=N1)c1cc(C#CC(C)(C)OC)ccc1O2
Outgoing: 0.1 to 1 µM

---

Each entry below carries its recorded pIC50.
target.under.test: BACE1 (Homo sapiens)
test.description: In Vitro BACE Cell-based Assay (HEK cell assay): Aβ40 in conditioned medium of cells stably expressing Amyloid Precursor Protein, sandwich ELISA
study.conditions: HEK cell-based assay, Aβ40 in conditioned medium, IC50 class symbols; read-out: HEK cell assay
pIC50: −log10 of the molar value.

// below: answered molecules
> print(dat)
                                chem.smiles  measured.property  endpoint.value
1  CC(C)(F)COc1cc(F)c2c(c1)[C@]1(COC(N)=N1)c1cc(-c3cccnc3)ccc1O2              pIC50          > 7.00
2  CCOCC(=O)Nc1ccc2c(c1)[C@@]1(COC(N)=N1)c1cc(OC)ccc1O2              pIC50    6.00 to 7.00
3  NC1=N[C@@]2(CO1)c1cc(-c3cccnc3F)ccc1Oc1c(F)cc(N3C[C@@H]4C[C@H]3CO4)cc12              pIC50          > 7.00
4  CC1(COc2cnc3c(c2)[C@]2(COC(N)=N2)c2cc(-c4cccc(F)c4F)ccc2O3)COC1              pIC50          > 7.00
5  NC1=N[C@@]2(CO1)c1cc(-c3cccnc3N3CCOCC3)ccc1Oc1ccc(N3CCOCC3)cc12              pIC50    5.30 to 6.00

Incoming: State measured pIC50 of the molecule CC(C)(C)/C=C/c1cnc2c(c1)[C@]1(COC(N)=N1)c1cc(-c3cccnc3F)ccc1O2 with BACE1 (Homo sapiens).
Outgoing: > 7.00

Incoming: Report pIC50 from BACE1 (Homo sapiens) testing of CC(C)OC1CN(c2ccc3c(c2)[C@]2(COC(N)=N2)c2cc(-c4cccnc4)ccc2O3)C1
Outgoing: > 7.00

---

target.under.test: BACE1 (Homo sapiens)
test.description: In Vitro BACE Cell-based Assay (HEK cell assay): Aβ40 in conditioned medium of cells stably expressing Amyloid Precursor Protein, sandwich ELISA
study.conditions: Table IV, class symbols; read-out: HEK cell assay
measured.property: IC50

Previously resolved entries follow.
> print(dat)
                                   compound   endpoint.value
1  CC(=O)COc1ccc2c(c1)[C@]1(COC(N)=N1)c1cc(-c3cccnc3)ccc1O2         < 100 nM
2  CC(=O)COc1ccc2c(c1)[C@]1(COC(N)=N1)c1cc(-c3cccnc3)cnc1O2  1000 to 5000 nM
3  CCCNC(=O)c1ccc2c(c1)[C@@]1(COC(N)=N1)c1cc(OCC(C)(C)C)ccc1O2   100 to 1000 nM

Incoming: Return IC50 (reported value) for this compound: NC1=N[C@@]2(CO1)c1cc(-c3cncnc3)ccc1Oc1cc(F)c(C3=CCOCC3)cc12
Outgoing: < 100 nM

Incoming: Supply recorded IC50 for NC1=N[C@@]2(CO1)c1cc(-c3cccnc3)ccc1Oc1ccc(N3C[C@@H]4C[C@H]3CO4)cc12 here.
Outgoing: < 100 nM

Incoming: Look up and state reported IC50 for Cc1ccc(-c2ccc3c(c2)[C@]2(COC(N)=N2)c2cc(-c4cncnc4)ccc2O3)o1
Outgoing: < 100 nM

Incoming: Specify IC50 for NC1=N[C@]2(CO1)c1cc(Br)ccc1Oc1c(F)cccc12 and stop.
Outgoing: > 5000 nM

Incoming: Fill in IC50 for record CC(C)(C)COc1ccc2c(c1)[C@]1(COC(N)=N1)c1cc(-c3ccc(S(C)(=O)=O)cc3)ccc1O2
Outgoing: 1000 to 5000 nM

---

// reported pIC50 per item
target.under.test: BACE1 (Homo sapiens)
test.description: In Vitro BACE Cell-based Assay (HEK cell assay): Aβ40 in conditioned medium of cells stably expressing Amyloid Precursor Protein, sandwich ELISA
study.conditions: Table IV, class symbols; read-out: HEK cell assay
pIC50: −log10 of the molar value.

> print(dat)
                                   compound  endpoint.value
1  Cn1ccc2cc(-c3ccc4c(c3)[C@@]3(COC(N)=N3)c3cc(OCC(C)(C)C)ccc3O4)ccc21          < 5.30

Incoming: Could you please provide reported pIC50 for CC(C)(C)COc1ccc2c(c1)[C@]1(COC(N)=N1)c1cc(-c3cncnc3O)ccc1O2 ? Thanks!
Outgoing: 5.30 to 6.00

Incoming: Write down pIC50 measured for item CC(C)(C)COc1ccc2c(c1)[C@]1(COC(N)=N1)c1cc(-c3ccsc3)ccc1O2
Outgoing: 5.30 to 6.00

Incoming: Supply reported pIC50 belonging to this compound: NC1=N[C@@]2(CO1)c1cc(-c3ccc4nccn4c3)ccc1Oc1ncccc12
Outgoing: 5.30 to 6.00

Incoming: // Input: NC1=N[C@@]2(CO1)c1cc(-c3cccnc3)ccc1Oc1ncc(N3CCOCC3)cc12 . Output its pIC50 only.
Outgoing: > 7.00

Incoming: Please give the documented pIC50 of NC1=N[C@@]2(CO1)c1cc(-c3cccnc3)ccc1Oc1ccc(-c3cncs3)cc12
Outgoing: > 7.00

Incoming: Supply pIC50 value. Item: COC(=O)c1ccc2c(c1)[C@@]1(COC(N)=N1)c1cc(OCC(C)(C)C)ccc1O2 [compound 875]
Outgoing: 6.00 to 7.00

Incoming: // fetch pIC50 given entry NC1=NC2(CO1)c1cc(-c3cccnc3)ccc1Oc1c(F)cc(C3=CCOCC3)cc12 (stereo in doubt)
Outgoing: > 7.00

---

target.under.test: BACE1 (Homo sapiens, UniProt P56817)
Sequence (P56817 46-501, species assumed): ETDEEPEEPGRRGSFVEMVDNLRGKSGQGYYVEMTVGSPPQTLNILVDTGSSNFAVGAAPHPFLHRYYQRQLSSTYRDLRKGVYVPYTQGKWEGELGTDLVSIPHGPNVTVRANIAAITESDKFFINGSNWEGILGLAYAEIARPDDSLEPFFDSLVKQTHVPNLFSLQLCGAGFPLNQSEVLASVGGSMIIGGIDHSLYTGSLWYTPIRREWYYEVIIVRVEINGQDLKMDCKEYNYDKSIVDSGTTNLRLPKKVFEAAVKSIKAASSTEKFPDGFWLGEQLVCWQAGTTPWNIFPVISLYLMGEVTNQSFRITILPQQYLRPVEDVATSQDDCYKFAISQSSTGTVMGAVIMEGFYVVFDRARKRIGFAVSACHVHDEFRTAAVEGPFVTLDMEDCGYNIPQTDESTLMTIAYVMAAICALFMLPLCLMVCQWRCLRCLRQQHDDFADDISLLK
test.description: In Vitro Enzymatic BACE FRET (Fluorescence Resonance Energy Transfer) Assay
Format: biochemical
study.conditions: Table II; read-out: BACE1 FRET assay
pIC50: −log10 of the molar value.
Reported pIC50 by item:

Examples with answers:
> print(dat)
                                chem.smiles                     target.under.test  endpoint.value
1  CC(C)(C)COc1ccc2c(c1)[C@]1(COC(N)=N1)c1cc(N3CCOCC3)ccc1O2  BACE1 (Homo sapiens, UniProt P56817)    6.00 to 7.00
2  CC(C)(C)COc1ccc2c(c1)[C@]1(COC(N)=N1)c1cc(-c3ccoc3)ccc1O2  BACE1 (Homo sapiens, UniProt P56817)          > 7.00
3  Cn1cc(-c2ccc3c(c2)[C@@]2(COC(N)=N2)c2cc(OCC(C)(C)C)ccc2O3)cn1  BACE1 (Homo sapiens, UniProt P56817)    6.00 to 7.00
4  Cc1ccc(-c2ccc3c(c2)[C@@]2(COC(N)=N2)c2cc(OCC(C)(C)C)ccc2O3)cn1  BACE1 (Homo sapiens, UniProt P56817)    6.00 to 7.00
5  NC1=N[C@]2(CO1)c1cc(OC[C@H]3CC3(F)F)ccc1Oc1ccc(-c3cncnc3)cc12  BACE1 (Homo sapiens, UniProt P56817)          > 7.00

Incoming: Determine from records and report pIC50 for NC1=N[C@]2(CO1)c1cc(C(=O)CC3CCCC3)ccc1Oc1ccc(-c3cncnc3)cc12
Outgoing: > 7.00

Incoming: Output measured pIC50 for this item: COc1ccc(-c2ccc3c(c2)[C@@]2(COC(N)=N2)c2cc(OCC(C)(C)C)ccc2O3)cn1
Outgoing: 6.00 to 7.00

Incoming: Hello, please tell me recorded pIC50 for this one: CC(C)(C)COc1ccc2c(c1)[C@]1(COC(N)=N1)c1cc(C#CC3CC3)ccc1O2
Outgoing: > 7.00

Incoming: Provide one value: measured pIC50 of CC(C)(C)C[C@H](O)c1ccc2c(c1)[C@]1(COC(N)=N1)c1cc(-c3cncnc3)ccc1O2
Outgoing: > 7.00

Incoming: Identify measured pIC50 corresponding to NC1=N[C@]2(CO1)c1cc(OC[C@H]3CCCO3)ccc1Oc1ccc(-c3cncnc3)cc12
Outgoing: > 7.00
